Measured values drawn from patent US9957274B2 for this set.

measurement-target: EED (Homo sapiens, UniProt O75530)
Sequence (O75530 whole entry): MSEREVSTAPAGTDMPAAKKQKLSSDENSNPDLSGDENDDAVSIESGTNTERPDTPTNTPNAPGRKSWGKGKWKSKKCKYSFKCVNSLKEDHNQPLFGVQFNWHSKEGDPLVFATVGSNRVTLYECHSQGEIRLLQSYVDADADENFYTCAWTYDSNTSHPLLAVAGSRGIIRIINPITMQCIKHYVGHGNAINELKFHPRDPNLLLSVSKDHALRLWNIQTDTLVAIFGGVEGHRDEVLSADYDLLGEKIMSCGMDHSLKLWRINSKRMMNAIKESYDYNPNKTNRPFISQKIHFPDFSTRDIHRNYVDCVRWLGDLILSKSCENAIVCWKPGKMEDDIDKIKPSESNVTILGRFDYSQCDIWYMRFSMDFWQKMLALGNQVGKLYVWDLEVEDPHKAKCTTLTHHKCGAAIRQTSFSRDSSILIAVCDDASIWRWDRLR
test-details: EED TR-FRET Binding Assay (modified LanthaScreen competition assay)
Each record's IC50 is compared with low bin (below 2 nM), mid bin (2 nM to below 30 nM), high bin (30 nM or more) to give its class.

>>> df
                                    compound  category_label
 0  CN(C)[C@H]1CN(C2CCc3ccccc32)C[C@@H]1c1cn(C)c2ccccc12 (stereo partly shown)         mid bin
 1  CC(=O)N1CCN(c2ccc([C@H]3CN(C4CCc5ccccc54)C[C@@H]3N(C)C)cc2)CC1 (stereo partly shown)        high bin
 2  CN(C)[C@H]1CN(C2CCc3cccc(F)c32)C[C@@H]1c1cn(C)c2c(C(=O)N3CC(O)C3)cccc12 (stereo partly shown) [Example 105]         low bin
 3  CN(C)[C@@H]1CN(C2CCc3cccc(F)c32)C[C@H]1c1cn(C)c2c(C(=O)O)cccc12 (stereo partly shown)        high bin
 4  CN(C)[C@@H]1CN(C2CCc3cccc(F)c32)C[C@H]1c1ccc(N2CCN(C(=O)CNS(C)(=O)=O)CC2)nc1 (mixture of isomers)         low bin
 5  CN(C)[C@H]1CN(C2CCc3cccc(Cl)c32)C[C@@H]1c1cn(C)c2ccccc12 (stereo partly shown)        high bin
 6  CN(C)[C@H]1CN(C2CCc3cccc(F)c32)C[C@@H]1c1ccc(-c2cnn(C)c2)cc1 (mixture of isomers)         low bin
 7  COC(=O)c1ccc([C@H]2CN(C3CCc4cccc(F)c43)C[C@@H]2N(C)C)cc1C (mixture of isomers)         low bin
 8  CN(C)[C@H]1CN(C2CCc3cccc(F)c32)C[C@@H]1c1cn(C)c2c(C(=O)NC3CCS(=O)(=O)C3)cccc12 (mixture of isomers)         low bin
 9  CN(C)[C@H]1CN(C2CCc3c(F)cccc32)C[C@@H]1c1cn(C)c2ccccc12 (mixture of isomers)         mid bin
10  CC(=O)N1CCN(c2ccc3c([C@H]4CN(C5CCc6cccc(F)c65)C[C@@H]4N(C)C)cn(C)c3c2)CC1 (mixture of isomers)         mid bin
11  CN(C)[C@@H]1CN([C@H]2CCc3ccccc32)C[C@H]1c1ccc(S(C)(=O)=O)cc1        high bin
